Molecular target: Human AMPK α2ß2γ1 (Homo sapiens, UniProt O43741+P54646)
Construct: The full length cDNAs of human AMPK ß2 (NM_005399.3) and human AMPK α2 (NM_006252.3); The full length cDNAs of human AMPK ß2 (NM_005399.3); 6xHis (N); made in house; host or cells: Escherichia coli BL21 CodonPlus (DE3)-RIL
Sequence (P54646 whole entry): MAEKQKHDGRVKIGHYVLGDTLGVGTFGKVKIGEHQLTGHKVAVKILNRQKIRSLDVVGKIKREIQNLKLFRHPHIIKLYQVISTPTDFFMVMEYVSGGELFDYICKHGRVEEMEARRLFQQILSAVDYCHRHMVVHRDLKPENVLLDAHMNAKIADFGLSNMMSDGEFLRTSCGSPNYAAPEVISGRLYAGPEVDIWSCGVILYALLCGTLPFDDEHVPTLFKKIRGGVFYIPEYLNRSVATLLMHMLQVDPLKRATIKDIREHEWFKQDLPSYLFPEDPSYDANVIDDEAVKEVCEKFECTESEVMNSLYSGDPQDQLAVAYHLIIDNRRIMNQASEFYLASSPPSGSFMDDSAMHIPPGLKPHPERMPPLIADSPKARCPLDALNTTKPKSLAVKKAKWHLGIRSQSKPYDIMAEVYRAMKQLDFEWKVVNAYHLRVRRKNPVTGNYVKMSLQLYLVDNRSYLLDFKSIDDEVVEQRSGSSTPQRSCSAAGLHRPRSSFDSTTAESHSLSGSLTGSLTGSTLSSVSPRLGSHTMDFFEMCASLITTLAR
Sequence (O43741 whole entry): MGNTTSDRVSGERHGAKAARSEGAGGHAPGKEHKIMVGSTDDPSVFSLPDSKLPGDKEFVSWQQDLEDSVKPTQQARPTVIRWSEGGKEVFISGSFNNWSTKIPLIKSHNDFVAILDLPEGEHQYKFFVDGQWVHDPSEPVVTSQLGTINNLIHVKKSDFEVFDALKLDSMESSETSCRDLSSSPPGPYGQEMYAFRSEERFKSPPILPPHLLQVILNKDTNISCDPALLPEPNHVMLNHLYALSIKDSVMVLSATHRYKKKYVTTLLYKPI
Sequence (P54619 whole entry partner): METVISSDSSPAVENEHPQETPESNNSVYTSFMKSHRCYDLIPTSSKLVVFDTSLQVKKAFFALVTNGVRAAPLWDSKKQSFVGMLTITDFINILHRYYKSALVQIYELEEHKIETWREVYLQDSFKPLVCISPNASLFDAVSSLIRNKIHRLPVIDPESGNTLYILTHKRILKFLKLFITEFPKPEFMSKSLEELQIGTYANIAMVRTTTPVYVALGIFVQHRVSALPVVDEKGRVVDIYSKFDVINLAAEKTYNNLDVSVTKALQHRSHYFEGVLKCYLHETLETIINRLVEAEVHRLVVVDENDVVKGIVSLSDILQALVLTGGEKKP
Test: Test Example 2: evaluation of an activator for AMP-activated protein kinase (AMPK), LabChip mobility shift assay with CaMKK2-phosphorylated enzyme
Type: biochemical
Conditions: FL-Peptide 7 substrate, 25° C., 2 hours
Description: The full length cDNAs of human AMPK ß2 (NM_005399.3) and human AMPK α2 (NM_006252.3) were inserted into the MCS1 and MCS2 of the pETDuet-1 vector to prepare a human AMPK ß2 and human AMPK α2 (6× His tag at the 5′ terminus) expressing plasmid. […] A conversion rate was calculated from the peak heights of the obtained substrate and product. […]
Param threshold (4 nM) applies to EC150 (compound concentration showing 150% relative to the control (100%)); output fulfilled when value >= threshold, not fulfilled when value < threshold.

Please review the entries below; each comes with its answer.
# compound, label.class
data = [
    ("OC1CC=C(c2cc(F)c3c(c2)CCC3Nc2nc3nc(O[C@@H]4CO[C@H]5[C@@H]4OC[C@H]5O)[nH]c3cc2Cl)CC1 (some centres unmarked)", "not fulfilled"),
    ("Cn1nccc1-c1cc(F)c2c(c1)CCC2Nc1nc2nc(O[C@@H]3CO[C@H]4[C@@H]3OC[C@H]4O)[nH]c2cc1Cl (some centres unmarked)", "fulfilled"),
]

Exercise: Identify whether the reported EC150 (compound concentration showing 150% relative to the control (100%)) of the following compound is 4 nM or greater: CS(=O)(=O)NCCOc1cc(F)c2c(c1)CCC2Nc1nc2nc(O[C@@H]3CO[C@H]4[C@@H]3OC[C@@H]4F)[nH]c2cc1Cl (some centres unmarked)
Solution: fulfilled

Exercise: Identify whether the reported EC150 (compound concentration showing 150% relative to the control (100%)) of the following compound is 4 nM or greater: CC(C)(O)/C=C/c1cc(F)c2c(c1)CCC2Nc1nc2nc(O[C@@H]3CO[C@H]4[C@@H]3OC[C@H]4O)[nH]c2cc1Cl (some centres unmarked)
Solution: not fulfilled

Exercise: Identify whether the reported EC150 (compound concentration showing 150% relative to the control (100%)) of the following compound is 4 nM or greater: Cc1ncc(-c2cc(F)c3c(c2)CC[C@@H]3Nc2nc3nc(O[C@@H]4CO[C@H]5[C@@H]4OC[C@H]5O)[nH]c3cc2Cl)cn1
Solution: not fulfilled

Exercise: Identify whether the reported EC150 (compound concentration showing 150% relative to the control (100%)) of the following compound is 4 nM or greater: O[C@@H]1CO[C@H]2[C@@H]1OC[C@H]2Oc1nc2nc(NC3CCc4cc(Br)cnc43)c(Cl)cc2[nH]1 (some centres unmarked)
Solution: fulfilled

Exercise: Identify whether the reported EC150 (compound concentration showing 150% relative to the control (100%)) of the following compound is 4 nM or greater: CCOCCOc1cc(F)c2c(c1)CC[C@@H]2Nc1nc2nc(O[C@@H]3CO[C@H]4[C@@H]3OC[C@H]4O)[nH]c2cc1Cl
Solution: not fulfilled

Exercise: Identify whether the reported EC150 (compound concentration showing 150% relative to the control (100%)) of the following compound is 4 nM or greater: CCc1ncc(-c2cc(F)c3c(c2)CC[C@@H]3Nc2nc3nc(O[C@@H]4CO[C@H]5[C@@H]4OC[C@H]5O)[nH]c3cc2Cl)cn1
Solution: not fulfilled

Exercise: Identify whether the reported EC150 (compound concentration showing 150% relative to the control (100%)) of the following compound is 4 nM or greater: COc1ccc(-c2cc(F)c3c(c2)CCC3Nc2nc3nc(O[C@@H]4CO[C@H]5[C@@H]4OC[C@H]5O)[nH]c3cc2Cl)cn1 (some centres unmarked) [Compound I-1-86]
Solution: fulfilled

Exercise: Identify whether the reported EC150 (compound concentration showing 150% relative to the control (100%)) of the following compound is 4 nM or greater: CC(C)(O)CCOc1cc(F)c2c(c1)CCC2Nc1nc2nc(O[C@@H]3CO[C@H]4[C@@H]3OC[C@H]4O)[nH]c2cc1Cl (some centres unmarked)
Solution: fulfilled

Exercise: Identify whether the reported EC150 (compound concentration showing 150% relative to the control (100%)) of the following compound is 4 nM or greater: COCCCOc1cc(F)c2c(c1)CCC2Nc1nc2nc(O[C@@H]3CO[C@H]4[C@@H]3OC[C@H]4O)[nH]c2cc1Cl (some centres unmarked)
Solution: not fulfilled

Exercise: Identify whether the reported EC150 (compound concentration showing 150% relative to the control (100%)) of the following compound is 4 nM or greater: O[C@@H]1CO[C@H]2[C@@H]1OC[C@H]2Oc1nc2nc(NC3CCc4cc(C5=CCOCC5)cnc43)c(Cl)cc2[nH]1 (some centres unmarked)
Solution: fulfilled

Exercise: Identify whether the reported EC150 (compound concentration showing 150% relative to the control (100%)) of the following compound is 4 nM or greater: Cn1cc(-c2cc(F)c3c(c2)CCC3Oc2nc3nc(O[C@@H]4CO[C@H]5[C@@H]4OC[C@H]5O)[nH]c3cc2Cl)cn1 (single isomer, unassigned)
Solution: fulfilled

Exercise: Identify whether the reported EC150 (compound concentration showing 150% relative to the control (100%)) of the following compound is 4 nM or greater: O[C@@H]1CO[C@H]2[C@@H]1OC[C@H]2Oc1nc2nc(NC3CCc4cc(OCF)cc(F)c43)c(Cl)cc2[nH]1 (some centres unmarked)
Solution: not fulfilled

Exercise: Identify whether the reported EC150 (compound concentration showing 150% relative to the control (100%)) of the following compound is 4 nM or greater: O[C@@H]1CO[C@H]2[C@@H]1OC[C@H]2Oc1nc2nc(N[C@H]3CCc4cc(-c5ccc(C(F)(F)F)nc5)cc(F)c43)c(Cl)cc2[nH]1
Solution: fulfilled

Exercise: Identify whether the reported EC150 (compound concentration showing 150% relative to the control (100%)) of the following compound is 4 nM or greater: CS(=O)(=O)CCCOc1cc(F)c2c(c1)CCC2Nc1nc2nc(O[C@@H]3CO[C@H]4[C@@H]3OC[C@H]4O)[nH]c2cc1Cl (some centres unmarked)
Solution: not fulfilled

Exercise: Identify whether the reported EC150 (compound concentration showing 150% relative to the control (100%)) of the following compound is 4 nM or greater: CC(=O)Nc1cc(F)c2c(c1)CCC2Nc1nc2nc(O[C@@H]3CO[C@H]4[C@@H]3OC[C@H]4O)[nH]c2cc1Cl (some centres unmarked)
Solution: fulfilled

Exercise: Identify whether the reported EC150 (compound concentration showing 150% relative to the control (100%)) of the following compound is 4 nM or greater: O=C(NCCOc1cc(F)c2c(c1)CCC2Nc1nc2nc(O[C@@H]3CO[C@H]4[C@@H]3OC[C@H]4O)[nH]c2cc1Cl)C1CCC1 (some centres unmarked)
Solution: fulfilled

src = patent US20190135834A1
